B1: library; a variant is named by its letters at N, in order (parent)
chain: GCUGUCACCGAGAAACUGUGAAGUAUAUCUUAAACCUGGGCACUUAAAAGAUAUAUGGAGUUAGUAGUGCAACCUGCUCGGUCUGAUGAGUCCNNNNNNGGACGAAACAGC

- Variants of: B1
- Test summary: FACS-Seq fitted mean relative fluorescence mCherry/BFP with ligand (log10 relative fluorescence); HEK293T; ligand: cyclic di-GMP (c-di-GMP-II aptamer); ligand concentration (+) FACS-Seq: 1 mM; higher = higher reporter protein expression
- Test parameters: ligand present: yes
Assign criterion met to entries whose FACS-Seq fitted mean (log10) meets or exceeds -0.2; assign criterion not met to the rest.

Record excerpt, results attached:
{"columns": ["Mutant", "Group"],
 "data": [
  ["AUGAAA", "criterion not met"],
  ["CGCUUA", "criterion not met"],
  ["UUGAAA", "criterion met"],
  ["CACCUU", "criterion met"],
  ["UGCAUC", "criterion not met"]
]}

# check: FACS-Seq fitted mean (log10) of CUUCAA is greater than or equal to -0.2
criterion met
